# measured target: human DR5 (human)
# assay text: SPR (BIAcore X100), human DR5 on CM5 chip, IgG injected, 1:1 Langmuir model
Readings of koff for the listed binders

>  <binder>
DA12 (antibody, V domains shown) VH: EVQLVESGGGLVQPGGSLRLSCAASGFTFSSFNMLWVRQAPGKGLEWVAGIGKSDRYTGYGSAVKGRFTISRDTSKNTAYLQMNSLRAEDTAVYYCSRDAGSGCGSGGWTGACIDTWGQGTLVTVSS VL: DIQMTQSPSSLSASVGDRVTITCSGGDSYAGSYYYGWYQQKPGKAPKTLIYNNNNLMPGVPSRFSGSRSGTDFTLTISSLQPEDFATYYCGSRDSSYVGIFGQGTKVEIK

>  <koff (s⁻¹)>
2.99e-05

$$$$
>  <binder>
DA24 (antibody, V domains shown) VH: AVTLDESGGGLQTPGGGLSLVCKGSGFTFSSFNMLWVRQAPGKGLEWVAGIGKSDRYTGYGSAVKGRATISRDDGQSTVRLQLNNLRAEDTGTYYCVKDAGSGCGSGGWTGACIDTWGHGTEVIVSS VL: LTQPSSVSANLGGTVEITCSGGDSYAGSYYYGWYQQKAPGSAPVTVIYNNNNRPSNIPSRFSGSTSGSTATLTITGVQAEDEATYYCGSRDSSYVGIFGAGTTLTVL

>  <koff (s⁻¹)>
1.23e-06

$$$$
>  <binder>
DA25 (antibody, V domains shown) VH: AVTLDESGGGLQTPGGGLSLVCKGSGFTFSSFNMLWVRQAPGKGLEWVAGIGKSDRYTGYGSAVKGRATISRDDGQSTVYLQMNSLRAEDTGTYYCVKDAGSGCGSGGWTGACIDTWGHGTEVIVSS VL: LTQPSSVSANLGGTVEITCSGGDSYAGSYYYGWYQQKAPGSAPVTVIYNNNNRPSNIPSRFSGSTSGSTATLTITGVQAEDEAVYFCGSRDSSYVGIFGAGTTLTVL

>  <koff (s⁻¹)>
1.71e-06

$$$$
